Overview of recorded pKi for various compounds
- TARGET SYSTEM: Caspase-1 (Homo sapiens)
- METHOD DESCRIPTION: Caspase-1 enzyme inhibition (Ki)
- Assay type: biochemical
- EXPERIMENTAL CONDITIONS: substrate Suc-YVAD-pNA 80 μM, 37° C., pH 7.5
pKi: −log10 of the molar value.

Q: Observed pKi on Caspase-1 (Homo sapiens) for C[C@H](NC(=O)c1ccc(N(C)C)cc1)C(=O)N1CCC[C@H]1C(=O)N[C@H](C=O)CC(=O)O [Example 7s] , please.
A: 6.00 to 8.00

###

- TARGET SYSTEM: Caspase-1 (Homo sapiens, UniProt P29466)
- METHOD DESCRIPTION: Caspase-1 enzyme inhibition (Ki)
- Assay type: biochemical
- EXPERIMENTAL CONDITIONS: substrate Suc-YVAD-pNA 80 μM, 37° C., pH 7.5
MEASUREMENT KIND: Ki

# count of solved cases: 3
MOLECULE	Ki
C[C@H](NC(=O)[C@@H](NC(=O)c1cc2ccccc2[nH]1)C(C)(C)C)C(=O)N[C@H](C=O)CC(=O)O [Example 29j]	< 10 nM
CC(C)Cc1ccc(C(C)C(=O)N[C@H](C(=O)N2CCC[C@H]2C(=O)N[C@H](C=O)CC(=O)O)C(C)C)cc1 (stereo partly shown)	10 to 1000 nM
COc1c(Cl)cc(C(=O)N[C@H](C(=O)N2CCC[C@H]2C(=O)N[C@H](C=O)CC(=O)O)C(C)C)cc1Cl	< 10 nM

Q: Missing value: Ki, Caspase-1 (Homo sapiens, UniProt P29466), entry COc1c(C)cc(C(=O)N[C@H](C(=O)N[C@@H](C)C(=O)N[C@H](C=O)CC(=O)O)C(C)C)cc1C [Example 29p] . Fill in?
A: < 10 nM

Q: What reported Ki corresponds to CCC(C)[C@H](NC(=O)c1cc(Cl)c(O)c(Cl)c1)C(=O)N1CCC[C@H]1C(=O)N[C@H](C=O)CC(=O)O (stereo partly shown) [Example 20k] on Caspase-1 (Homo sapiens, UniProt P29466)?
A: < 10 nM

Q: GET /values?readout=Ki&system=Caspase-1 (Homo sapiens, UniProt P29466)&item= CC(C)CC(=O)Nc1ccc(C(=O)N[C@@H](C)C(=O)N2CCC[C@H]2C(=O)N[C@H](C=O)CC(=O)O)cc1Cl [Example 122v]
A: 10 to 1000 nM

Q: Notebook entry, Caspase-1 (Homo sapiens, UniProt P29466) assay: Ki of C[C@@H](O)[C@H](NC(=O)c1cc(Cl)c(O)c(Cl)c1)C(=O)N1CCC[C@H]1C(=O)N[C@H](C=O)CC(=O)O [Example 20l] = ?
A: < 10 nM

###

Each entry below carries its reported pKi.
- TARGET SYSTEM: Caspase-1 (Homo sapiens)
- METHOD DESCRIPTION: Caspase-1 enzyme inhibition (Ki)
- Assay type: biochemical
- EXPERIMENTAL CONDITIONS: substrate Suc-YVAD-pNA 80 μM, 37° C., pH 7.5
- Description: Ki values for test compounds with the various caspases were obtained by the method of Margolin et al. (J. Biol. Chem., 272 pp. 7223-7228 (1997)). […] Reaction rates were measured at 37° C. either by following the time dependant increase in absorbance at 405 nm (for the pNA substrates) or in fluorescence (Ex 390, Em 460) (for the AMC substrates). […]
pKi: −log10 of the molar value.

// below: answered compounds
COMPOUND	VAL
COc1c(C)cc(C(=O)N[C@@H](C)C(=O)N2CC(F)(F)C[C@H]2C(=O)N[C@H](C=O)CC(=O)O)cc1C [Example 27i]	6.00 to 8.00
COc1ccc(C(=O)NC(C(=O)N2CCCC2C(=O)NC(C=O)CC(=O)O)C(C)(C)C)cc1 (stereo not shown) [Example 69]	> 8.00
COc1ccc(C(=O)N[C@@H](C)C(=O)N[C@@H](C)C(=O)N[C@H](C=O)CC(=O)O)cc1 [Example 29s]	6.00 to 8.00

Read the next record carefully.
Q: Which pKi reading was recorded for the compound C[C@H](NC(=O)c1cc(F)c(N(C)C)c(F)c1)C(=O)N1CCC[C@H]1C(=O)N[C@H](C=O)CC(=O)O [Example 122n] ?
A: 6.00 to 8.00

###

- TARGET SYSTEM: UniProt P29466
- Sequence (P29466 120-297 limits assumed): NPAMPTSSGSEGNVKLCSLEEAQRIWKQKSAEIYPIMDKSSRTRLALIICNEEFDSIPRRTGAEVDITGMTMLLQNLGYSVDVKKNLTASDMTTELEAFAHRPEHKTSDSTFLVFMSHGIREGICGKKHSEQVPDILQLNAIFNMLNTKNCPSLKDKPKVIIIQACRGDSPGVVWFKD
- Sequence (P29466 317-404 limits assumed): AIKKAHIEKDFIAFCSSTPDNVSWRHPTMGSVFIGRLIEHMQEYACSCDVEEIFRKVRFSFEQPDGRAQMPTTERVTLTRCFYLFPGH
- METHOD DESCRIPTION: Caspase-1 enzyme inhibition (Ki)
- Format: biochemical
- EXPERIMENTAL CONDITIONS: substrate Suc-YVAD-pNA 80 μM, 37° C., pH 7.5
pKi: −log10 of the molar value.
# reported pKi; entries follow

COMPOUND	pKi
CC(C)[C@H](NC(=O)C1(c2ccccc2)CCCC1)C(=O)N1CCC[C@H]1C(=O)N[C@H](C=O)CC(=O)O [Example 5t]	< 6.00
CS(=O)(=O)C[C@H](NC(=O)c1nccc2ccccc12)C(=O)N1CCC[C@H]1C(=O)N[C@H](C=O)CC(=O)O [Example 20r]	6.00 to 8.00

Turning to the following compound.
Q: Item COc1ccc(C(=O)N[C@@H](C)C(=O)N2CCC[C@H]2C(=O)N[C@H](C=O)CC(=O)O)cc1 [Example 7f] has what recorded pKi?
A: 6.00 to 8.00

###

- TARGET SYSTEM: Caspase-1 (Homo sapiens)
- METHOD DESCRIPTION: Caspase-1 enzyme inhibition (Ki)
- Type: biochemical
- EXPERIMENTAL CONDITIONS: substrate Suc-YVAD-pNA 80 μM, 37° C., pH 7.5
pKi: −log10 of the molar value.
MEASUREMENT KIND: pKi

COMPOUND	MEASUREMENT KIND	VAL
COc1ccc(CCC(=O)N[C@H](C(=O)N2CCC[C@H]2C(=O)N[C@H](C=O)CC(=O)O)C(C)C)cc1OC	pKi	6.00 to 8.00
COc1cc(N)c(Cl)cc1C(=O)N[C@@H](C)C(=O)N1CC(F)(F)C[C@H]1C(=O)N[C@H](C=O)CC(=O)O [Example 27b]	pKi	6.00 to 8.00
C[C@H](NC(=O)c1ccc(Cl)c(Cl)c1)C(=O)N1CCC[C@H]1C(=O)N[C@H](C=O)CC(=O)O	pKi	> 8.00
CS(=O)(=O)C[C@H](NC(=O)c1ccc(N)c(Cl)c1)C(=O)N1CCC[C@H]1C(=O)N[C@H](C=O)CC(=O)O [Example 20t]	pKi	6.00 to 8.00
C[C@H](NC(=O)c1ccc(N)c(Cl)c1)C(=O)N1CCNC[C@H]1C(=O)N[C@H](C=O)CC(=O)O [Example 16b]	pKi	> 8.00
CC(=O)Nc1c(Cl)cc(C(=O)N[C@@H](C)C(=O)N2CC(F)(F)C[C@H]2C(=O)N[C@H](C=O)CC(=O)O)cc1Cl [Example 27k]	pKi	6.00 to 8.00

Q: Quick one: pKi for CC(C)S(=O)(=O)N1CCN(C(=O)[C@H](C)NC(=O)c2nccc3ccccc23)[C@H](C(=O)N[C@H](C=O)CC(=O)O)C1 [Example 18b] ?
A: > 8.00

Q: Would you kindly share the measured pKi for CS(=O)(=O)CC[C@H](NC(=O)c1nccc2ccccc12)C(=O)N1CCC[C@H]1C(=O)N[C@H](C=O)CC(=O)O [Example 20h] ?
A: > 8.00

Q: Could you share which pKi value was measured for `COc1cc(N)c(Cl)cc1C(=O)N[C@@H](C)C(=O)N1CCC[C@H]1C(=O)N[C@H](C=O)CC(=O)O` ?
A: 6.00 to 8.00

Q: Value lookup for pKi; key = C[C@H](NC(=O)c1c(F)c(F)c(N)c(F)c1F)C(=O)N1CCC[C@H]1C(=O)N[C@H](C=O)CC(=O)O [Example 122p]
A: > 8.00

Q: For the compound C[C@H](NC(=O)c1ccc2[nH]cnc2c1)C(=O)N1CC(F)(F)C[C@H]1C(=O)N[C@H](C=O)CC(=O)O [Example 27n] , what pKi is on record?
A: 6.00 to 8.00

###

- TARGET SYSTEM: Caspase-1 (Homo sapiens, UniProt P29466)
- METHOD DESCRIPTION: Caspase-1 enzyme inhibition (Ki)
- Format: biochemical
- EXPERIMENTAL CONDITIONS: substrate Suc-YVAD-pNA 80 μM, 37° C., pH 7.5
pKi: −log10 of the molar value.
pKi values by entry

COMPOUND	TARGET SYSTEM	VAL
COc1ccc(C(=O)N[C@@H](C)C(=O)N2CCC[C@H]2C(=O)N[C@H](C=O)CC(=O)O)cc1OCc1ccccc1 [Example 122i]	Caspase-1 (Homo sapiens, UniProt P29466)	> 8.00

Q: Find the recorded pKi belonging to CCC(C)[C@H](NC(=O)c1ccc(N)c(Cl)c1)C(=O)N1CCC[C@H]1C(=O)N[C@H](C=O)CC(=O)O (stereo partly drawn) [Example 20q] and report it.
A: 6.00 to 8.00

Q: Need pKi, item Cc1onc(-c2c(F)cccc2Cl)c1C(=O)N[C@H](C(=O)N1CCC[C@H]1C(=O)N[C@H](C=O)CC(=O)O)C(C)C [Example 5ae]
A: 6.00 to 8.00
